Attribution: patent US6828327B2

- measured.target: GSK 3-β (Oryctolagus cuniculus)
- Sequence (G1T8E2 1-432): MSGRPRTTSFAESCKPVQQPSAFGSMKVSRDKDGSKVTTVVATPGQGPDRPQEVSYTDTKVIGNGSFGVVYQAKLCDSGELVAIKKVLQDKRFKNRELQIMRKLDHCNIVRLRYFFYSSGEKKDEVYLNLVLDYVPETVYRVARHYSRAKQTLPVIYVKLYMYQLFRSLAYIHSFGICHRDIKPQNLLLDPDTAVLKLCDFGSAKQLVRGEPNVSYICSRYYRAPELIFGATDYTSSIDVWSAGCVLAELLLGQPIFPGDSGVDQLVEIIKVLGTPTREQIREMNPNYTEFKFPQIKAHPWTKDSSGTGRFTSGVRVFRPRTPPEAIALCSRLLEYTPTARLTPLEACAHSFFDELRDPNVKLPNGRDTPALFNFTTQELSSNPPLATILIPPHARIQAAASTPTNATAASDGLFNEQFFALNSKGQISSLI
- experimental.details: Glycogen Synthase Kinase 3-β Assay
- run.parameters: inhibition value, recombinant rabbit GSK 3-β, PPI-2 substrate
pIC50: −log10 of the molar value.
observation.type: pIC50

Take a look at these entries with their results.
- O=C1NC(=O)C2=C1c1cn(c3ccccc13)CCOCCOCCn1cc2c2ccccc21: 6.99
- O=C1NC(=O)C2=C1c1cn(c3ncccc13)CCOCCSCCOCCn1cc2c2cccnc21: 6.96
- CC(C)N1CCOCCn2cc(c3ccccc32)C2=C(C(=O)NC2=O)c2cn(c3ccccc23)CCOCC1: 7.12
- O=C1NC(=O)C2=C1c1cn(c3ccccc13)CCOCCN(CCO)CCOCCn1cc2c2ccccc21: 7.19
- O=C1CCCCn2cc(c3cccnc32)C2=C(C(=O)NC2=O)c2cn(c3ncccc23)CCCC1: 7.05

A = O=C1CCCCCCn2cc(c3cccnc32)C2=C(C(=O)NC2=O)c2cn(c3ncccc23)CCCC1
B = O=C1NC(=O)C2=C1c1cn(c3ccccc13)CCOCCOCCn1cc2c2cccnc21
// pick min by pIC50: A , B Select an item and report its label.
B
